Data provenance is ChEMBL document CHEMBL3991601.

Target: UniProt Q13976
Sequence (Q13976 whole entry): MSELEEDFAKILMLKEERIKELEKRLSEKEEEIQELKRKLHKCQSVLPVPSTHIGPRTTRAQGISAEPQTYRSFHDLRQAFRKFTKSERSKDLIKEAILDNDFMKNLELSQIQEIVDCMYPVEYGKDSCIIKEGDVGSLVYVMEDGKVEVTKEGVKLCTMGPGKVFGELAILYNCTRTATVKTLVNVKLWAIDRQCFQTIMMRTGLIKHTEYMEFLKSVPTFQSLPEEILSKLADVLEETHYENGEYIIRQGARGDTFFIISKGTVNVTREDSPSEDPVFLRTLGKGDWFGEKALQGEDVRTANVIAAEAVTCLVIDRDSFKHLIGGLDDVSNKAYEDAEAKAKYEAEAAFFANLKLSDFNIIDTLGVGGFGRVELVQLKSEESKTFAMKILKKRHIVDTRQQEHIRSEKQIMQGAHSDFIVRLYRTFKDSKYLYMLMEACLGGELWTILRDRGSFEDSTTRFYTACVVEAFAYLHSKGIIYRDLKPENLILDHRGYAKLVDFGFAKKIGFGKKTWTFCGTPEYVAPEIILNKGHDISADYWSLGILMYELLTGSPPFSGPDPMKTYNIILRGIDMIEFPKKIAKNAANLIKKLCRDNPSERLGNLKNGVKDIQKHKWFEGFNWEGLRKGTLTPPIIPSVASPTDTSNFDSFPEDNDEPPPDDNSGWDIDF
Calls of active or inactive are those of the source.
Return exactly one item of y (active), n (inactive)

# lookup: test call for CC(C)c1cc(CNc2nc(Nc3cc(C4CC4)[nH]n3)cc(N3CCN(C)CC3)n2)on1 n

---

Target: Mitogen-activated protein kinase kinase kinase kinase 5 (Homo sapiens); note: in the data inactive means no Kd found up to 30 µM
Sequence (Q9Y4K4 whole entry): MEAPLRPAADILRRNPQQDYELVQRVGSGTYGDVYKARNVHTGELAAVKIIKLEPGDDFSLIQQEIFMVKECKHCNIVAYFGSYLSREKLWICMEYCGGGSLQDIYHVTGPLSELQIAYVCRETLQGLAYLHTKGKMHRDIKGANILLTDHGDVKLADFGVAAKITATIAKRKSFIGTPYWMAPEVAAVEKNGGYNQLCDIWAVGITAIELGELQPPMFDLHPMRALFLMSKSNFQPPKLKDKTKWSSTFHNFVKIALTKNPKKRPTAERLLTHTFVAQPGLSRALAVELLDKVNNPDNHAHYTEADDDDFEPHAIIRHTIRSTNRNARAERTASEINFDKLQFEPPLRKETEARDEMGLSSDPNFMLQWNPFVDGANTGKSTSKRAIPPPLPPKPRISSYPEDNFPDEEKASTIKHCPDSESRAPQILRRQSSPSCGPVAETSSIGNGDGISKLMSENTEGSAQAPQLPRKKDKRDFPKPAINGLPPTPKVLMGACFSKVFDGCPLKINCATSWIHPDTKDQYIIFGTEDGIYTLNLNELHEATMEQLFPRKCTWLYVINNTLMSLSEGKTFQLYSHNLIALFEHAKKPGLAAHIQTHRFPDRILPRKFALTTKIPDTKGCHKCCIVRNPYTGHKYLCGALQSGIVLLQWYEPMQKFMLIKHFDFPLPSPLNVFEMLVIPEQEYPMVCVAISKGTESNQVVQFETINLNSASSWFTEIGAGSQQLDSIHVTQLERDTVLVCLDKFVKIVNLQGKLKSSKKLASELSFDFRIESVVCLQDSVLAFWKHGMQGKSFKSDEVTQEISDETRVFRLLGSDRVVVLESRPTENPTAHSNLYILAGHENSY
Active and inactive are the calls of the source.
Return exactly one item of active, inactive

Observe how each entry below is paired with its result.
# MOLECULE, TARGET OR TEST SYSTEM, DISCRETE LABEL
measured = [
    ("O=c1[nH]ccc2cc(OC3CCNCC3)ccc12 [SAR-407899 FREE BASE]", "Mitogen-activated protein kinase kinase kinase kinase 5 (Homo sapiens)", "inactive"),
    ("Cc1cccc(-c2nn3c(c2-c2ccnc4ccc(C(N)=O)cc24)CCC3)n1", "Mitogen-activated protein kinase kinase kinase kinase 5 (Homo sapiens)", "inactive"),
    ("CC(C)(C)c1nc(-c2cccc(NS(=O)(=O)c3c(F)cccc3F)c2F)c(-c2ccnc(N)n2)s1", "Mitogen-activated protein kinase kinase kinase kinase 5 (Homo sapiens)", "inactive"),
]

# lookup: test call for NC(=O)Nc1cc(-c2cccc(F)c2)sc1C(=O)N[C@H]1CCCNC1 active

Same read-out for COc1cc([C@@H]2c3cc4c(cc3[C@H](O)[C@H]3COC(=O)[C@@H]23)OCO4)cc(OC)c1OC ? inactive

Same read-out for CCn1c(C(=O)N(C2CC2)C2CC2)cc2c3c(ncn3C)c(Nc3cc(C)n(C)n3)nc21 ? inactive

Same read-out for CO[C@H]1C[C@@H]2CC[C@@H](C)[C@@](O)(O2)C(=O)C(=O)N2CCCC[C@H]2C(=O)O[C@H]([C@H](C)C[C@@H]2CC[C@@H](O)[C@H](OC)C2)CC(=O)[C@H](C)/C=C(\C)[C@@H](O)[C@@H](OC)C(=O)[C@H](C)C[C@H](C)/C=C/C=C/C=C/1C ? inactive
